target: T1, p85α cSH2 (614–720) (human, UniProt P27986 614-720); test: fluorescence polarisation; SH2 domain titrated into 5-FAM-labelled peptide (20 nM CD28, YSLV, pYSLV; 40 nM YSLM, pYSLM), 298 K, 96-well plates, single site binding isotherm; settings: both partners purified
T1 construct: PI3K regulatory subunit p85α, human, C-terminal SH2 domain, residues 614-720; also called cSH2 domain of p85α; source: E. coli, purified (glutathione-agarose, HRV 3C cleavage, S75 size exclusion)
T1 sequence (P27986 614-720): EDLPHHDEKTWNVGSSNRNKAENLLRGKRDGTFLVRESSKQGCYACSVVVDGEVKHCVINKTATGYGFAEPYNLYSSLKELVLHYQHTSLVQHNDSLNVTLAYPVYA
pKd: −log10 of the molar value. Square brackets hold non-standard residues; d marks the D form. Ends that are not written are not given here. * marks the point of attachment. 5FAM = O=C1OC2(c3ccc(O)cc3Oc3cc(O)ccc32)c2ccc(C(=O)*)cc21; pY = N[C@@H](Cc1ccc(OP(=O)(O)O)cc1)C(=O)O
Entries annotated with measured pKd

>  <BINDER>
5FAM-TEDQ[pY]SLVEDE (also called α peptide; p85α (pYSLV) peptide; source: synthetic peptide; bought: Biomatik) [[5-FAM]-TEDQ-[pY]-SLVEDE, phosphorylated peptide based on p85α]

>  <pKd>
4.08

$$$$
>  <BINDER>
5FAM-SD[pY]MNMTP (Known p85 SH2 target peptide from CD28; also called control peptide from CD28; source: synthetic peptide; bought: Biomatik) [[5-FAM]-SD-[pY]-MNMTP, CD28 peptide]

>  <pKd>
7.37

$$$$
>  <BINDER>
5FAM-TEDQ[pY]SLMEDE (also called β peptide; p85β (pYSLM) peptide; source: synthetic peptide; bought: Cambridge Research Biochemicals) [[5-FAM]-TEDQ-[pY]-SLMEDE, phosphorylated peptide based on p85β]

>  <pKd>
6.18

$$$$
